# Test system: HT-29
# procedure-details: NCI tumour cell line growth inhibition, 48 h
Activity calls are given as the source filed them. Cut-off read from the data, not from the text of the source: active = GI50 up to about 1.1 µM and inactive = higher.
Measured GI50, listed per entry for reference.
observation-type: GI50

• CC(C)C1OC23CCCCC2C(C#N)(C#N)C1(C#N)C(=N)O3 (stereo not drawn) = 14.5 µM (inactive)
• CN(C(=O)C12C3(C(=O)C(C)(C)C)C4C5(C#N)C3C1(C(=O)C(C)(C)C)C5C42C(=O)C(C)(C)C)C(C)(C)C (stereo not drawn) = > 50 µM (inactive)
• COC(=O)[C@@H]1Cc2cc(O)c(O)cc2C2(CCN(C)CC2)O1 = > 10 µM (inactive)
• CCOC(=O)NC(OCCN(C)C)(C(F)(F)F)C(F)(F)F = > 100 µM (inactive)
• CC(=O)OCCOCNC(=S)N/N=C/c1ccc([N+](=O)[O-])o1 = 30.3 µM (inactive)
• Nc1nc(-c2ccccc2/N=N/N2CCCC2)nc2ccccc12 = 2.38 µM (inactive)
• CO[C@]12C[C@H](CNC(=O)c3cc(Br)c(Br)[nH]3)O[C@H]1NC(=O)N2 = > 100 µM (inactive)
• CC(=O)Nc1ccc2nc(-c3cccc(F)c3)cc(O)c2c1 = 5.28 µM (inactive)
• CCOC(=O)[C@H](Cc1ccc(O)cc1)/N=C1/[C@H]2CCC[C@]1(O)[C@@](C)([N+](=O)[O-])C2 = > 100 µM (inactive)
• c1c[nH]c(-c2ccc(-c3ccc[nH]3)c3nsnc23)c1 = > 26.3 µM (inactive)
• NNC(=O)CNC(=O)CSc1nnc(COc2ccc(Cl)cc2)n1-c1ccccc1 = > 100 µM (inactive)
• Cc1nn(C(=O)c2ccc(Cl)cc2)c2c1C(c1ccc(O)cc1)SC(=N)N2 (stereo not drawn) = > 10 µM (inactive)
• COC1CCC(O)C(/C=C/[N+](=O)[O-])C1 (stereo not drawn) = 3.37 µM (inactive)
• O=[N+]([O-])c1ccc(Oc2c(Cl)cc(S(=O)(=O)N/C(=N\O)Nc3ccc(Cl)cc3)cc2Cl)cc1 = 14.4 µM (inactive)
• OC1(c2ccc(Cl)cc2)c2ccc(CN3CCCC3)cc2C2=NCCN21 (stereo not drawn) = 13.1 µM (inactive)
• CC1(C)OCC2OC3([C@H]4OC(C)(C)O[C@@H]4CO)OC(C)(C)OC3C2O1 (stereo partly drawn) = > 100 µM (inactive)
• C=CC(Cl)(CBr)CCC(Br)C(C)(C)Cl (stereo not drawn) = 15.3 µM (inactive)
• C=C(CO[Si](C)(C)C(C)(C)C)C(C)=O = 19.5 µM (inactive)
